Experiment: Circular dichroism spectroscopy (alpha-helical content, R-value)
Type: physicochemical
Settings: CD, 20 µM peptide in 10 mM phosphate buffer (pH 7.0) with 50% TFE (v/v); calculated per ref 31
Assign labels as follows, please: rule met for % of alpha helix, 50% TFE below 50%; rule not met for % of alpha helix, 50% TFE equal to or exceeding 50%.

Decide: % of alpha helix, 50% TFE of KKK-GLRKRLRKFRNKIKEK [CB3-sC18, sC18 conjugate bearing three meta-carborane clusters] strictly below 50%?
rule not met

Here's an entry: KK-GLRKRLRKFRNKIKEK [CB2-sC18, sC18 conjugate bearing two meta-carborane clusters] . Is its % of alpha helix, 50% TFE below 50%?
rule not met

Regarding KKK‐LLIILRRRIRKQAHAHSK [CB3-pVEC, pVEC conjugate bearing three meta-carborane clusters] , kindly confirm whether its % of alpha helix, 50% TFE is beneath 50%.
rule not met

Lab note: % of alpha helix, 50% TFE threshold 50%. Does this substance come in strictly under it? KKKK‐LLIILRRRIRKQAHAHSK [CB4-pVEC, pVEC conjugate bearing four meta-carborane clusters]
rule not met

Criterion: % of alpha helix, 50% TFE strictly below 50%. Is it met by KKKK-GLRKRLRKFRNKIKEK [CB4-sC18, sC18 conjugate bearing four meta-carborane clusters] ?
rule not met

Just wondering, is % of alpha helix, 50% TFE of K‐LLIILRRRIRKQAHAHSK [CB1-pVEC, pVEC conjugate bearing one meta-carborane cluster] below 50%?
rule met

Lab log: compare recorded % of alpha helix, 50% TFE with 50%; is it strictly lower for CB‐KKKK‐LLIILRRRIRKQAHAHSK [CB5-pVEC, pVEC conjugate bearing five meta-carborane clusters] ?
rule met

* * *

Test: Circular dichroism spectroscopy (alpha-helical content, R-value)
Assay type: physicochemical
Conditions: ratio between the molar ellipticity values at 222 and 208 nm; 20 µM peptide in 10 mM phosphate buffer (pH 7.0) with 50% TFE
reported.endpoint: R-value, 50% TFE

Fill blank: measured R-value, 50% TFE of the substance KKK‐LLIILRRRIRKQAHAHSK [CB3-pVEC, pVEC conjugate bearing three meta-carborane clusters] is ____.
0.82

Which R-value, 50% TFE is listed for LLIILRRRIRKQAHAHSK [pVEC, VE-cadherin-derived cell-penetrating peptide, reference compound] ?
0.73

Which R-value, 50% TFE reading was recorded for the substance KKKK-GLRKRLRKFRNKIKEK [CB4-sC18, sC18 conjugate bearing four meta-carborane clusters] ?
0.98

Looking for the measured R-value, 50% TFE of KKK-GLRKRLRKFRNKIKEK [CB3-sC18, sC18 conjugate bearing three meta-carborane clusters] , can you help?
0.88

# query: R-value, 50% TFE of entry KK‐LLIILRRRIRKQAHAHSK [CB2-pVEC, pVEC conjugate bearing two meta-carborane clusters]
0.82

Consider the substance shown here: KK-GLRKRLRKFRNKIKEK [CB2-sC18, sC18 conjugate bearing two meta-carborane clusters] What is its recorded R-value, 50% TFE?
0.89

Requested field: R-value, 50% TFE. Item: K-GLRKRLRKFRNKIKEK [CB1-sC18, sC18 conjugate bearing one meta-carborane (CB) cluster]
0.85

* * *

Experiment: Circular dichroism spectroscopy (alpha-helical content, R-value)
Assay type: physicochemical
Conditions: CD, 20 µM peptide in 10 mM phosphate buffer (pH 7.0); calculated per ref 31
I'd appreciate it if you could supply % of alpha helix, Phosphate Buffer values for the items below.
Kindly answer with a numeric value in %, unit omitted.

Recorded % of alpha helix, Phosphate Buffer for KKK-GLRKRLRKFRNKIKEK [CB3-sC18, sC18 conjugate bearing three meta-carborane clusters] , please?
16.68

Reported % of alpha helix, Phosphate Buffer for KK‐LLIILRRRIRKQAHAHSK [CB2-pVEC, pVEC conjugate bearing two meta-carborane clusters] : what is it?
20.41

Return reported % of alpha helix, Phosphate Buffer; argument: CB-KKKK-GLRKRLRKFRNKIKEK [CB5-sC18, sC18 conjugate bearing five meta-carborane clusters]
21.09

Dear colleague, I am looking for the recorded % of alpha helix, Phosphate Buffer of the following substance: KKK‐LLIILRRRIRKQAHAHSK [CB3-pVEC, pVEC conjugate bearing three meta-carborane clusters]
16.98
